experiment: Plasma concentration of OLEA and its metabolites after intragastric administration of ROO containing OLEA (LC-ESI-LTQ-Orbitrap-MS); assay type: in vivo, male Sprague–Dawley rats; conditions: male, Sprague-Dawley, rat, oral, 2.5 mg/kg, 4.5 h after intragastric OLEA 0.3 mg/mL in ROO, mean ± SD
assay metric: concentration at 4.5 h
Answer by giving the amount and then stating its unit.

Note to self: concentration at 4.5 h recorded for OCCc1ccc(O)c(O)c1 [OH-TY, hydroxytyrosol] was 1620 nM

---

test: Plasma concentration of OLEA and its metabolites after intragastric administration of ROO containing OLEA (LC-ESI-LTQ-Orbitrap-MS); assay type: in vivo, male Sprague–Dawley rats; conditions: male, Sprague-Dawley, rat, oral, 2.5 mg/kg, 1 h after intragastric OLEA 0.3 mg/mL in ROO, mean ± SD
assay metric: concentration at 1 h (nM)
Give just the numeric value; nM need not be written.

Note to self: concentration at 1 h recorded for OCCc1ccc(O)c(O)c1 [OH-TY, hydroxytyrosol] was 2110
